Entries and their measured PI3Kδ IH % @ 1 uM follow.
# test system: p110δ/p85α (Homo sapiens, UniProt O00329)
# Sequence (O00329 whole entry): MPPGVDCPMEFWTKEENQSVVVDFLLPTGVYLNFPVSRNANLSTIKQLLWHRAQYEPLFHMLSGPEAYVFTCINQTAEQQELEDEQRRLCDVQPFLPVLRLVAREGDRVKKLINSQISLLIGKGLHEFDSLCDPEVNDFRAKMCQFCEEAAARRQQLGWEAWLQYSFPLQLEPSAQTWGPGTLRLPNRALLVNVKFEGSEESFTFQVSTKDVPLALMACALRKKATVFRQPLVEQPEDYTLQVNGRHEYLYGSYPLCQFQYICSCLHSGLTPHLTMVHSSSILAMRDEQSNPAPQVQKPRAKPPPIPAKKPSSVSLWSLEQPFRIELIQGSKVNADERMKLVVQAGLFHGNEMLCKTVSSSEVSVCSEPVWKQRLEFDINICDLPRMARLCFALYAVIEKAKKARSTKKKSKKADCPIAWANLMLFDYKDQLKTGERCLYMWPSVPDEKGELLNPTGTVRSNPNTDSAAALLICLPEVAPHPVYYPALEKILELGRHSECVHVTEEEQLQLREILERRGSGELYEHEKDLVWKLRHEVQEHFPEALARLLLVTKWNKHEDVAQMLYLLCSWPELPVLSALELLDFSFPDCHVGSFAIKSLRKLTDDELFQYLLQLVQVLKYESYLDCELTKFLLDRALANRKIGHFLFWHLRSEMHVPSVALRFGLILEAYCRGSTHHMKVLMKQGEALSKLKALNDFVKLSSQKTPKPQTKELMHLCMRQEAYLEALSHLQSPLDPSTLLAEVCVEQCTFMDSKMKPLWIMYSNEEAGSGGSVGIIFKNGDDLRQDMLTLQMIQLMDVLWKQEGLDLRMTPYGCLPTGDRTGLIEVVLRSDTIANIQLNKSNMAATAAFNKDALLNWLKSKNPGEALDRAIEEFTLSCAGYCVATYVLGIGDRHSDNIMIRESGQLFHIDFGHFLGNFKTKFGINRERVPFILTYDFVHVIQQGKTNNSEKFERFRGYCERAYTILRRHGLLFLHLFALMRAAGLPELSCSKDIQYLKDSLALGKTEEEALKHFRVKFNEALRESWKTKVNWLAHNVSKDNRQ
# Sequence (P27986 whole entry partner): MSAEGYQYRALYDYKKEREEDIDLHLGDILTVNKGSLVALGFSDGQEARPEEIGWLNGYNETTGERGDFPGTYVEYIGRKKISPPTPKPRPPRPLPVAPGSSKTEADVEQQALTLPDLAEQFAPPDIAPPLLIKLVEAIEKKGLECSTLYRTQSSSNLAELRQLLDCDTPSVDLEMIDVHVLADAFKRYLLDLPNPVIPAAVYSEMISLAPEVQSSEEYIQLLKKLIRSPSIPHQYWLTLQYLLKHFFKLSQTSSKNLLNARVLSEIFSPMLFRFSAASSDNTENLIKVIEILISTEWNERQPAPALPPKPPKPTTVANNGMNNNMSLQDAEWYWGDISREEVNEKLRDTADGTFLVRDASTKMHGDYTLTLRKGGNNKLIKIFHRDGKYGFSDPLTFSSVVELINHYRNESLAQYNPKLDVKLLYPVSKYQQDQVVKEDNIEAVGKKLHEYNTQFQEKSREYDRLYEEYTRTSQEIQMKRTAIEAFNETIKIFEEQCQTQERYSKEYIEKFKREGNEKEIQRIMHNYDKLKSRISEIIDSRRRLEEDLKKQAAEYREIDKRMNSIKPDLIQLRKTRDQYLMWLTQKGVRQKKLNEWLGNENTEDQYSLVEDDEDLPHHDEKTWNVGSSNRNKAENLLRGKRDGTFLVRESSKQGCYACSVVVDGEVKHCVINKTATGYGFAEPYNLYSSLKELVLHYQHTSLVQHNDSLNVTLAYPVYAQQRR
# test name: Transcreener KINASE Assay, kinase inhibition of p110δ/p85α
# Type: biochemical
# conditions: 1 uM test compound
Entry rule: numbers only, all in %.

// worked examples, PI3Kδ IH % @ 1 uM included
CC(=O)c1cnc(N)nc1N1CC[C@H]1c1nn2ccc(Cl)c2c(=O)n1-c1cccc(F)c1 [Compound 440]: 95.2
N#Cc1c[nH]c2ncnc(N3CC[C@H]3c3nn4ccc(Cl)c4c(=O)n3C3CCC3)c12 [Compound 375]: 92.6

Now for a further compound.
Enquiry: # get_value(readout='PI3Kδ IH % @ 1 uM', item= CCC(Nc1ncnc(N)c1C#N)c1cn2ccc(Cl)c2c(=O)n1-c1cccc(F)c1 (stereo not shown) [Compound 86] )
Return: 99.0

----------
In this section we review reported PI3Kβ IH % @ 1 uM values for a set of compounds.
# test system: p110β/p85α (Homo sapiens)
# Sequence (P42338 whole entry): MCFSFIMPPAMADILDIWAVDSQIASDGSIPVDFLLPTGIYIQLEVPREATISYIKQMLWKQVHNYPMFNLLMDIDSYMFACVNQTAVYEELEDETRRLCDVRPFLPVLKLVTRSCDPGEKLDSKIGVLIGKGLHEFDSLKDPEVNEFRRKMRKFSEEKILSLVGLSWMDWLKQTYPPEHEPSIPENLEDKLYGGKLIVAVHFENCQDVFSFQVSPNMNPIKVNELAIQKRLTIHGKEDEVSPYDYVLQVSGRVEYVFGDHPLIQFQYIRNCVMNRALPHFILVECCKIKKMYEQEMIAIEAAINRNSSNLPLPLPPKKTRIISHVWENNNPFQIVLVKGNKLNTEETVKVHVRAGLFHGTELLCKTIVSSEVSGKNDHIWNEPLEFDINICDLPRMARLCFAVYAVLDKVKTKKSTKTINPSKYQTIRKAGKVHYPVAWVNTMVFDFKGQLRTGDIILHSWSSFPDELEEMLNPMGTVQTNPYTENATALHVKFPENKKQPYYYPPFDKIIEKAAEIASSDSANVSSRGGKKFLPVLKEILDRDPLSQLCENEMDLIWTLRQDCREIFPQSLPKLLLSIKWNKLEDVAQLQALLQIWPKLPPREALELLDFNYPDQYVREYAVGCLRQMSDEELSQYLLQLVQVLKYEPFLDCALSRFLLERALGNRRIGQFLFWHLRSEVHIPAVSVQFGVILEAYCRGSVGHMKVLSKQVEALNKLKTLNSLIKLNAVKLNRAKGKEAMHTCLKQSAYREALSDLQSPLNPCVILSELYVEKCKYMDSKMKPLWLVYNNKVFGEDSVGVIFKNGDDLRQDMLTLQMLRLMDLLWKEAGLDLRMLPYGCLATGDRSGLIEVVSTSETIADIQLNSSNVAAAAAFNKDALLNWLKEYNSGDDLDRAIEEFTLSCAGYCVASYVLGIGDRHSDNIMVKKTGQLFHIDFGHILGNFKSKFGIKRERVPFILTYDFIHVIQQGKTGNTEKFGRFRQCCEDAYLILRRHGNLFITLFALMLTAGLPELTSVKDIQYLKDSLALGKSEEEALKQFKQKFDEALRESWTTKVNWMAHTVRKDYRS
# Sequence (P27986 2-724 partner): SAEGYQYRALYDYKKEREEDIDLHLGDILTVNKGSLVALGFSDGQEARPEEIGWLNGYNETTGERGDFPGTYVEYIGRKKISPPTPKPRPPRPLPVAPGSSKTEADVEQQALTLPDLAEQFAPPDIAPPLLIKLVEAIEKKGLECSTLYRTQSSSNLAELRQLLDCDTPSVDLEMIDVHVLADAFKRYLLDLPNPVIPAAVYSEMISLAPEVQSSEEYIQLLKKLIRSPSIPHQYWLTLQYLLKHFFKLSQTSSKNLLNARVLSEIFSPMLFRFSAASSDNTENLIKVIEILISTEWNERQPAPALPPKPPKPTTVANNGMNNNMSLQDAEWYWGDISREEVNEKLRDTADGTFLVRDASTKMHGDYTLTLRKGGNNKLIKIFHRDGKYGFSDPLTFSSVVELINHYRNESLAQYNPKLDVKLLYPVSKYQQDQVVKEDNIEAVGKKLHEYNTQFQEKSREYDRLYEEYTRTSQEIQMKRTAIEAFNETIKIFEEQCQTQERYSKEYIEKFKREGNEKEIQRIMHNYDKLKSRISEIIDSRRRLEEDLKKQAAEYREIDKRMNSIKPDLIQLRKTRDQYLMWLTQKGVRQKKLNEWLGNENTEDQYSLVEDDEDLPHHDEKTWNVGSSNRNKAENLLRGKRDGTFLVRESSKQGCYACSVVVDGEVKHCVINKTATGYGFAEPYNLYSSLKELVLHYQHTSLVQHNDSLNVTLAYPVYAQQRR
# test name: Transcreener KINASE Assay, kinase inhibition of p110β/p85α
# Format: biochemical
# conditions: 1 uM test compound

Below: 6 compounds and their reported PI3Kβ IH % @ 1 uM.
N#Cc1cnc(N)nc1N1CCC1c1nn2ccc(Cl)c2c(=O)n1CC1CC1 (centres unmarked): 37.4%
COc1cccc(-n2c([C@@H]3CCN3c3ncnc4[nH]cc(C#N)c34)nn3ccc(Cl)c3c2=O)c1: 12.4%
CC(Nc1ncnc2[nH]cnc12)c1cc2cccn2c(=O)n1-c1ccccc1 (centres unmarked): 47.8%
C[S+]([O-])c1c[nH]c2ncnc(N3CC[C@H]3c3nn4ccc(F)c4c(=O)n3-c3ccccc3)c12 (some centres unmarked): 28.9%
CC(Nc1nc(N)ncc1C(F)(F)F)c1cc2ncc(Cl)n2c(=O)n1-c1ccccc1 (centres unmarked): 56.7%
CC(=O)c1cnc(N)nc1N1CC[C@H]1c1nn2c(C)cc(Cl)c2c(=O)n1-c1ccccc1: 6.2%

Enquiry: Could you tell me which PI3Kβ IH % @ 1 uM is on file for CC(Nc1ncnc2[nH]cc(C#N)c12)c1cc2ncc(Cl)n2c(=O)n1-c1cccc(F)c1 (centres unmarked) ?
Return: 19.1%

Enquiry: Fill blank: measured PI3Kβ IH % @ 1 uM of the compound C[C@H]1CN(c2nc(N)ncc2Cl)[C@@H]1c1nn2ccc(F)c2c(=O)n1-c1ccccc1 is ____.
Return: 33.0%

----------
# test system: p110γ (Homo sapiens, UniProt P48736)
# Sequence (P48736 whole entry): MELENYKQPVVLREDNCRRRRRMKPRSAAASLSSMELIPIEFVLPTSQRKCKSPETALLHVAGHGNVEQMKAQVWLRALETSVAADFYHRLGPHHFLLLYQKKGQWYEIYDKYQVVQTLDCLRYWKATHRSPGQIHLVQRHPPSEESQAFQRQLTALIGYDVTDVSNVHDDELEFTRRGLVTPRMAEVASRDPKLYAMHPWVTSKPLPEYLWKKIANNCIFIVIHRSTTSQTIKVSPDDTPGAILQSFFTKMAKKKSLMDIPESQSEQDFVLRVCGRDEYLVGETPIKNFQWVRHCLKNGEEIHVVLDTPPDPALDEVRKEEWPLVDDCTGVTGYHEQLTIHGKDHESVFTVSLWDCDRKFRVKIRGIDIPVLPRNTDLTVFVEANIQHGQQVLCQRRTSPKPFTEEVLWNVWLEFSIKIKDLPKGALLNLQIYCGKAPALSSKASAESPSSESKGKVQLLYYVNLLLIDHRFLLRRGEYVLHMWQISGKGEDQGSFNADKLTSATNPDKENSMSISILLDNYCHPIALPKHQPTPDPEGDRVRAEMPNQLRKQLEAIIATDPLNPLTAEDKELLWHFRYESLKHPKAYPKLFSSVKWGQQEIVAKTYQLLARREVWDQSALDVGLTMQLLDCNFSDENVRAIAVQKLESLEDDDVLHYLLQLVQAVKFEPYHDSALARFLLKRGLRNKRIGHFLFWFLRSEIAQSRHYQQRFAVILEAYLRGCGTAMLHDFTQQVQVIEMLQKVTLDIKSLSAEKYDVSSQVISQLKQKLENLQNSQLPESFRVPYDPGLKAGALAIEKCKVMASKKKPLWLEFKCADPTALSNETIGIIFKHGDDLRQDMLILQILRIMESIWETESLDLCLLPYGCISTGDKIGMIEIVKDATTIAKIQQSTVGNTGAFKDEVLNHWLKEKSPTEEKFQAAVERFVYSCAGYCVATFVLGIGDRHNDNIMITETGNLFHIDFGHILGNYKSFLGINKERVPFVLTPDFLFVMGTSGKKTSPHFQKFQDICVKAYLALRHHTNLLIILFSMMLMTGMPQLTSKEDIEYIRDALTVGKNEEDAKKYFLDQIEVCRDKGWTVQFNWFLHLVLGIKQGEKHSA
# test name: Transcreener KINASE Assay, kinase inhibition of p110γ
# Assay type: biochemical
# conditions: 1 uM test compound
measurement name: PI3Kγ IH % @ 1 uM (%)
Give just the number in %; leave the unit off.

Here's what some known entries look like.
O=c1c2c(Cl)ccn2nc([C@@H]2C[C@H](F)CN2c2ncnc3[nH]cnc23)n1-c1ccccc1: 92.7
C[C@@H](Nc1nc(N)ncc1C#N)c1cc2ncc(Cl)n2c(=O)n1-c1ccccc1: 53.6

// moving on: another record for PI3Kγ IH % @ 1 uM
Enquiry: # lookup: PI3Kγ IH % @ 1 uM of O=c1c2c(Br)ccn2nc([C@@H]2CCN2c2ncnc3[nH]cnc23)n1-c1ccccc1
Return: 83.9

----------
# test system: p110δ/p85α (Homo sapiens, UniProt O00329)
# test name: Transcreener KINASE Assay, kinase inhibition of p110δ/p85α
# Type: biochemical
# conditions: 1 uM test compound
measurement name: PI3Kδ IH % @ 1 uM (%)
Numbers only; they are read as %.

In the examples that follow, each entry is paired with its recorded PI3Kδ IH % @ 1 uM.
N#Cc1c[nH]c2ncnc(N3CC[C@H]3c3nn4cccc4c(=O)n3-c3ccccc3)c12: 91.5
C[S@+]([O-])c1c[nH]c2ncnc(N3C[C@@H](F)C[C@H]3c3nn4ccc(Cl)c4c(=O)n3-c3cccc(F)c3)c12: 95.9
COc1ccc(-c2n[nH]c3ncnc(N4CC[C@H]4c4nn5ccc(Cl)c5c(=O)n4-c4ccccc4)c23)cn1: 96.1
C[S@@+]([O-])c1c[nH]c2ncnc(N3C[C@@H](F)C[C@H]3c3nn4ccc(Cl)c4c(=O)n3-c3cccc(F)c3)c12: 94.7
O=c1c2c(Cl)ccn2nc([C@@H]2C[S+]([O-])CN2c2ncnc3[nH]cnc23)n1-c1ccccc1 (stereo partly drawn): 98.9
C[S+]([O-])c1c[nH]c2ncnc(N3CCC[C@H]3c3nn4ccc(Cl)c4c(=O)n3-c3ccc(F)cc3)c12 (stereo partly drawn): 94.2
CC(=O)c1c(N)ncnc1NC(C)c1cn2ccc(Cl)c2c(=O)n1-c1ccccc1 (stereo not drawn): 97.8
N#Cc1c[nH]c2ncnc(N3CC[C@H]3c3nn4ccc(C(F)(F)F)c4c(=O)n3-c3ccccc3)c12: 95.9

Now let's try a different one.
Enquiry: Name the recorded PI3Kδ IH % @ 1 uM for CS(=O)(=O)[C@H]1C[C@@H](c2nn3ccc(Cl)c3c(=O)n2-c2ccccc2)N(c2ncnc3[nH]cnc23)C1 .
Return: 97.1
